Origin of values: patent US20180030151A1

Below, each entry is listed alongside its reported FXa assay OD, 20 nM Ab, 10 nM TFPI.
- Assayed system: recombinant human TFPI (tissue factor pathway inhibitor) (human, UniProt P10646 29-304)
- Assay method text: cell-based or functional assay
Assay readout: FXa assay OD, 20 nM Ab, 10 nM TFPI

{"columns": ["Binder", "Assay readout", "Observed value"],
 "data": [
  ["clone 1238 (antibody, V domains shown) VH: EVQLVESGGGLVKPGGSLRLSCAASGFTFSSYAMNWVRQAPGKGLEWVSTITTGGSYTYYADSVEGRFTISRDNAKNSLYLQMNSLRAEDTAVYYCARQDGHFLMDYWGQGTLVTVSS VL: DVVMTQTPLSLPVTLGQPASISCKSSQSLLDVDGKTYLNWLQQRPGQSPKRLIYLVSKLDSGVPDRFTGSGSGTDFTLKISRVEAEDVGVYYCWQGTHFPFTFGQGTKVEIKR", "FXa assay OD, 20 nM Ab, 10 nM TFPI", 0.55],
  ["clone 1214 (antibody, V domains shown) VH: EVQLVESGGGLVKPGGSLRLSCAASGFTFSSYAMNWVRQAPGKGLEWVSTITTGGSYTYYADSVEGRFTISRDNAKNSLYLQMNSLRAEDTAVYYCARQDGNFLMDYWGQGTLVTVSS VL: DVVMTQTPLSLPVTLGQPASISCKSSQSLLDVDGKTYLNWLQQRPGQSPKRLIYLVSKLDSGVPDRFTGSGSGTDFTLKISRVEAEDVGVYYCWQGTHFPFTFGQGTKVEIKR", "FXa assay OD, 20 nM Ab, 10 nM TFPI", 0.672],
  ["clone 1224 (antibody, V domains shown) VH: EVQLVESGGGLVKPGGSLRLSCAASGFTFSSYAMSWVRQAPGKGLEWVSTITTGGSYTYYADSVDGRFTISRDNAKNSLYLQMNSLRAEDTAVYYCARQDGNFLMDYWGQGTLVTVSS VL: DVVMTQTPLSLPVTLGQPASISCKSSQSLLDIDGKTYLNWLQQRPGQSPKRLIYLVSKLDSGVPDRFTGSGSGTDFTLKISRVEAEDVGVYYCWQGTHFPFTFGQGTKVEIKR", "FXa assay OD, 20 nM Ab, 10 nM TFPI", 0.576],
  ["clone 1023 (antibody, V domains shown, scFv on yeast at selection; human IgG4/kappa IgG as purified) VH: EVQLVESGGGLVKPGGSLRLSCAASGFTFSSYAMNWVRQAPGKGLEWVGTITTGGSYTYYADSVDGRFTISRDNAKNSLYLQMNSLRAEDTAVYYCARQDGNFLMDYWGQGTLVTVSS VL: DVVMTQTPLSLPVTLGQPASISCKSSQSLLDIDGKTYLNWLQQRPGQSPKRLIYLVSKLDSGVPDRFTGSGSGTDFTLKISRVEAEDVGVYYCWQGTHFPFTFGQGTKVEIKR", "FXa assay OD, 20 nM Ab, 10 nM TFPI", 0.682]
]}
